Ref: ChEMBL document CHEMBL2375217

target: Nuclear factor erythroid 2-related factor 2 (Mus musculus) (UniProt Q60795); experiment: Activation of Nrf2/ARE in E15 stage mouse primary cortical neurons at 6.25 to 50 uM after 48 hrs by human placental alkaline phosphatase reporter gene assay; assay type: cell-based; settings: Cerebral cortex neuron
Sequence (Q60795 whole entry): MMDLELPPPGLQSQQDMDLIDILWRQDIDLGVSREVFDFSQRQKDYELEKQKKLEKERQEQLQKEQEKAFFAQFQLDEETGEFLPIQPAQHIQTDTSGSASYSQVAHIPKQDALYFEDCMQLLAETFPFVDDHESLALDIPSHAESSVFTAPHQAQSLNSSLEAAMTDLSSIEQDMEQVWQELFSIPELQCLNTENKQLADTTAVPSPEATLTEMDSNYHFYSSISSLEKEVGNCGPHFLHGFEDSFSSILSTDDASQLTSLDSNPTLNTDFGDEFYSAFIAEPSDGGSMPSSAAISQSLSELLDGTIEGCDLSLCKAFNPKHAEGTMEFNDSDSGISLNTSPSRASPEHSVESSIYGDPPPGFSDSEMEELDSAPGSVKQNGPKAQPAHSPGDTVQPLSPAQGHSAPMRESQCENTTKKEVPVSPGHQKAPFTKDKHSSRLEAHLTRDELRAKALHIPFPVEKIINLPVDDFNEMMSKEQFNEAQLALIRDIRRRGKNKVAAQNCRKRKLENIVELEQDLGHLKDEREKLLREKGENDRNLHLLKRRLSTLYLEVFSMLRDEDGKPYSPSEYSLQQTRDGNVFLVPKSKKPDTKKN
The source made the active and inactive calls. The calls are words filed in the database; no cut-off is given here.
Can you answer with just one of these options? 1 for active, -1 for inactive

Here are 4 compounds together with their reported answers.
structure.notation | group.label
CC(C)(C)c1cc(O)ccc1O | 1
CC(C)c1cc2c(c(O)c1O)[C@@]1(C(=O)O)CCCC(C)(C)[C@@H]1CC2 | 1
COc1c(C(C)C)cc2c(c1O)[C@@]1(C(=O)O)CCCC(C)(C)[C@@H]1CC2 | -1
CC(C)c1cc2c(c(O)c1O)[C@@]13CCCC(C)(C)[C@@H]1[C@H](OC3=O)[C@H]2O | 1

// query In this assay, the call recorded for CC(C)c1cc2c(c(O)c1O)[C@@]13CCCC(C)(C)[C@@H]1[C@H](OC3=O)[C@@H]2O was what?
// result 1

// query In this assay, the call recorded for CC(C)c1cc2c(c(O)c1O)C1=C(CC2)C(C)(C)CCC1=O was what?
// result 1
